Tested on: IRE1-XBP1s (XBP1-RLuc splicing reporter in HEK293 T-REx cells)
Experiment notes: IRE1-XBP1s activation assay (XBP1-RLuc splicing reporter, HEK293 T-REx cells, luminescence relative to thapsigargin)
Assay type: cell-based
Experimental context: 18 h, compound 10 μM, HEK293 T-REx XBP1-RLuc reporter cells, relative to thapsigargin (Tg) 500 nM, read-out: Activity (IRE1-XBP1s activation, luminescence as % signal relative to thapsigargin, % Tg)
Procedure: IRE1-XBP1s activation Assay: HEK293 T-REx cells stably expressing the XBP1-RLuc splicing reporter were treated with an IRE1-XBP1s activator provided herein (10 μM) in the presence or absence of the IRE1 active site inhibitor 4μ8C (32 μM) for 18 h. Luminescence was shown as the percentage signal relative to thapsigargin (Tg) (500 nM, 18 h).
Value type: activation at 10 µM

>>> observed_measurement("Cc1ccc(OCCN(C)C(=O)Cn2cc(NC(=O)CCOc3ccc(F)cc3C)c(C)n2)cc1")
"< 30%"
>>> observed_measurement("Cc1ccc(OCCC(=O)Nc2cnn(CC(=O)N(C)CCOc3ccc(C)c(C(F)(F)F)c3)c2)c(F)c1")
"< 30%"
>>> observed_measurement("Cc1ccc(OCCN(C)C(=O)Cn2cc(NC(=O)CCNc3ccnc(Cl)c3)cn2)cc1")
"> 50%"
>>> observed_measurement("Cc1ccc2nc(OCCN(C)C(=O)Cn3cc(NC(=O)CCNc4ccc(F)nc4C)cn3)sc2c1")
"< 30%"
>>> observed_measurement("Cc1ccc(OCCN(C)C(=O)Cn2cc(NC(=O)CCOc3ncc(F)cc3C)cn2)cc1")
"< 30%"
>>> observed_measurement("CCOc1cc(NCCC(=O)Nc2cnn(CC(=O)N(C)CCOc3ccc(C)cc3)c2)ccn1")
"< 30%"
>>> observed_measurement("Cc1ccc(OCCC(=O)Nc2cnn(CC(=O)N(C)CCOc3ccc(C4CC4)cc3)c2)c(F)c1")
"30 to 50%"
>>> observed_measurement("Cc1ccc(OCCN(C)C(=O)Cn2cc(NC(=O)CCNc3ccc(F)nc3C)cn2)cc1")
"> 50%"
>>> observed_measurement("Cc1ccc(OCCN(C)C(=O)Cn2cc(NC(=O)CCNc3cccnc3C(F)(F)F)cn2)cc1")
"> 50%"
>>> observed_measurement("Cc1ccc(OCCN(C)C(=O)Cn2cc(NC(=O)CCOc3ccc(C(F)(F)F)cc3)cn2)cc1")
"< 30%"
>>> observed_measurement("Cc1ccc(OCCN(C)C(=O)Cn2cc(NC(=O)CCNc3ccnc(N)c3)cn2)cc1")
"< 30%"
>>> observed_measurement("Cc1ccc(OCCN(C)C(=O)Cn2cc(NC(=O)CCNc3c(F)cncc3C3CC3)cn2)cc1")
"> 50%"
>>> observed_measurement("COc1ccc(OCCN(C)C(=O)Cn2cc(NC(=O)CCNc3ccnc(C)c3)cn2)cc1")
"< 30%"
>>> observed_measurement("Cc1ccc(OCCN(C)C(=O)Cn2cc(NC(=O)CCNc3ncc(F)cn3)cn2)cc1")
"30 to 50%"
>>> observed_measurement("CN(CCOc1ccc(C(F)(F)F)cn1)C(=O)Cn1cc(NC(=O)CCOc2ccnc(N)c2)cn1")
"< 30%"
>>> observed_measurement("CN(CCOc1ccc(C#N)cc1)C(=O)Cn1cc(NC(=O)CCOc2ccccc2)cn1")
"< 30%"

###

Test system: IRE1-XBP1s (XBP1-RLuc splicing reporter in HEK293 T-REx cells)
Experiment notes: IRE1-XBP1s activation assay (XBP1-RLuc splicing reporter, HEK293 T-REx cells, luminescence relative to thapsigargin)
Format: cell-based
Experimental context: 18 h, compound 10 μM, HEK293 T-REx XBP1-RLuc reporter cells, relative to thapsigargin (Tg) 500 nM, read-out: Activity (IRE1-XBP1s activation, luminescence as % signal relative to thapsigargin, % Tg)
Description: IRE1-XBP1s activation Assay: HEK293 T-REx cells stably expressing the XBP1-RLuc splicing reporter were treated with an IRE1-XBP1s activator provided herein (10 μM) in the presence or absence of the IRE1 active site inhibitor 4μ8C (32 μM) for 18 h. Luminescence was shown as the percentage signal relative to thapsigargin (Tg) (500 nM, 18 h).
Value type: activation at 10 µM

>>> observed_measurement("Cc1ccc(OCCC(=O)Nc2cnn(CC(=O)N(C)CCOc3ccc(F)c(F)c3)c2)c(F)c1")
"< 30%"
>>> observed_measurement("Cc1ccc(OCCN(C)C(=O)Cn2cc(NC(=O)CCOc3ccc(F)cc3C)cn2)cc1")
"> 50%"
>>> observed_measurement("Cc1ccc(OCCN(C)C(=O)Cn2cc(NC(=O)CC(C)(C)Nc3ccnc(F)n3)cn2)cc1")
"< 30%"

###

System: IRE1-XBP1s (XBP1-RLuc splicing reporter in HEK293 T-REx cells)
Experiment notes: IRE1-XBP1s activation assay (XBP1-RLuc splicing reporter, HEK293 T-REx cells, luminescence relative to thapsigargin)
Type: cell-based
Experimental context: 18 h, compound 10 μM, HEK293 T-REx XBP1-RLuc reporter cells, relative to thapsigargin (Tg) 500 nM, read-out: Activity (IRE1-XBP1s activation, luminescence as % signal relative to thapsigargin, % Tg)
Value type: activation at 10 µM

>>> observed_measurement("Cc1ccc(OCCN(C)C(=O)Cn2cc(NC(=O)CCOC3CCCCC3(C)C)cn2)cc1 (centres unmarked)")
"< 30%"
>>> observed_measurement("Cc1ccc(OCCN(C)C(=O)Cn2cc(NC(=O)CCNc3cccnc3F)cn2)cc1")
"< 30%"
>>> observed_measurement("Cc1ccc(OCCN(C)C(=O)Cn2cc(NC(=O)CCNc3ccc(C)nc3F)cn2)cc1")
"< 30%"
>>> observed_measurement("COc1cccc(NCCC(=O)Nc2cnn(CC(=O)N(C)CCOc3ccc(C)cc3)c2)n1")
"< 30%"
>>> observed_measurement("Cc1ccc(OCCN(C)C(=O)Cn2cc(NC(=O)CCNc3cccc(N)n3)cn2)cc1")
"> 50%"
>>> observed_measurement("Cc1ccc(OCCN(C)C(=O)Cn2cc(NC(=O)CCNc3cncc(C)c3)cn2)cc1")
"30 to 50%"
>>> observed_measurement("COc1ccnc(NCCC(=O)Nc2cnn(CC(=O)N(C)CCOc3ccc(C)cc3)c2)c1")
"30 to 50%"
>>> observed_measurement("Cc1ccc(OCCN(C)C(=O)Cn2cc(NC(=O)CCNc3ccc(C#N)nc3C)cn2)cc1")
"< 30%"
>>> observed_measurement("CN(CCOc1ccc(C(F)(F)F)cn1)C(=O)Cn1cc(NC(=O)CCNc2ccnc(F)n2)cn1")
"30 to 50%"
>>> observed_measurement("COC(=O)Nc1cccc(OCCC(=O)Nc2cnn(CC(=O)N(C)CCOc3ccc(C)cc3)c2)n1")
"30 to 50%"
>>> observed_measurement("Cc1ccc(OCCC(=O)Nc2cnn(CC(=O)N(C)CCOc3ccc(F)cc3)c2)c(F)c1")
"< 30%"
>>> observed_measurement("Cc1ccc(OCCN(C)C(=O)Cn2cc(NC(=O)CCOc3cnccc3C(F)(F)F)cn2)cc1")
"< 30%"
>>> observed_measurement("Cc1ccc(OCCN(C)C(=O)Cn2cc(NC(=O)CNC(=O)c3ncc(F)cn3)cn2)cc1")
"< 30%"
>>> observed_measurement("Cc1ccc(OCCN(C)C(=O)Cn2cc(NC(=O)CCNc3ccc(OCc4ccccc4)cn3)cn2)cc1")
"< 30%"
>>> observed_measurement("Cc1ccc(OCCN(C)C(=O)Cn2cc(NC(=O)CCOc3c(C)cc(F)cc3C)cn2)cc1")
"30 to 50%"
>>> observed_measurement("Cc1ccc(OCCN(C)C(=O)Cn2cc(NC(=O)CCOc3cccc(CO)c3)cn2)cc1")
"> 50%"
>>> observed_measurement("Cc1ccc(OCCN(C)C(=O)Cn2cc(NC(=O)CCNc3cc(Cl)ccn3)cn2)cc1")
"< 30%"
